Values were extracted from the supplement of paper PMC9732359.

Experiment: protein stability index of a GFP-peptide fusion (yeast GPS) (PSI 1-4); higher = more stable; sorted into four equal gates, so the index is relative within each strain
Conditions: doa10∆
PARAMETER: protein stability index
Form field (numeric): enter value without unit.

Ask: What value of protein stability index has been reported for the following sequence? INLAMNESSLALEFVSL [SRB4]
Reply: 1.44

Others:
Ask: What value of measured protein stability index is listed for IEQEKQEQQEQDKKKKS [PRE6] ?
Reply: 2.17

Ask: Returns the measured protein stability index for the input sequence. Input: PLVGKPKTELTKGDSTP [YAR002W/NUP60]
Reply: 2.59

Ask: Return reported protein stability index; argument: DLFTHLWNQWLKLNTSL [SRP68]
Reply: 1.76

Ask: Need protein stability index, item AIANTLLYLRLKNIYVS [PRP8]
Reply: 1.38

Ask: Please give the measured protein stability index for this sequence: GNIVKEFENKFQNSYKP [YMR129W/POM152]
Reply: 3.35

Ask: Look up protein stability index for this sequence: CNEEQTLEAKIGGLLSK [RPO31]
Reply: 3.16

Ask: Which value of protein stability index has been reported for GITHFRAGMTHEDEKLI [PRP8] in the records?
Reply: 2.62

Ask: Endpoint output: protein stability index of RQPSLHKMSMMAHRVKV [RPO21] . Value?
Reply: 2.2

Ask: What does the record list as protein stability index for MAKRTKKVGITGKYGVR [RPL43A] ?
Reply: 3.36

Ask: Tell me the measured protein stability index of TRPISSQVLDLAKKIAP [SMC2] , please.
Reply: 2.72

###

Experiment: protein stability index of a GFP-peptide fusion (yeast GPS) (PSI 1-4); higher = more stable; sorted into four equal gates, so the index is relative within each strain
Settings: doa10∆
PARAMETER: protein stability index
Output: the number by itself.

Ask: # lookup: protein stability index of RFPTKFVTQFRHLRRTG [RET1]
Reply: 1.41

Ask: Reported protein stability index, sequence TIHAKRKIVFRCSECIK [RPN4] : ____
Reply: 2.39

Ask: Item under review: VLPKIFNSVKSFDEWFN [SNF2] . Reported protein stability index?
Reply: 2.83

Ask: # protein stability index lookup, item STPDQRKRVYNIKFLSK [ESC2]
Reply: 3.34

Ask: Reported protein stability index, sequence HDGGFDLVHIKDSLDNT [RPS4A] : ____
Reply: 2.05

***
Ask: Entry QELELPGEFVTAIAHSI [SNF5] : reported protein stability index = ?
Reply: 2.36

Ask: I am curious: what protein stability index value has been reported for SQPTNSTTTSLHVPNLQ [SMC4] ?
Reply: 1.99

Ask: What value of protein stability index has been recorded for this entry: AKNEDDPAHSLNYTVIN [AAR2]
Reply: 2.93

###

Experiment: protein stability index of a GFP-peptide fusion (yeast GPS) (PSI 1-4); higher = more stable; sorted into four equal gates, so the index is relative within each strain
Conditions: doa10∆
protein stability index values by entry
Lab note: jot the number down without any unit.

Ask: protein stability index for IIELPNEKFEIELLSLD [SRB4] ?
Reply: 2.68

Ask: GET /values?readout=protein stability index&item= LASNFDNFDYFNQRDGE [MED1]
Reply: 3.3

Ask: Can you share its protein stability index? I mean this sequence: ALSLHREILCYSKDAKE [FAS2]
Reply: 1.78

Ask: Reported protein stability index, sequence ARIKDAFITQLESSITD [YJL039C/NUP192] : ____
Reply: 2.83

Ask: Looking for the measured protein stability index of LPYERHMISQEGIKETQ [SWI1] , can you help?
Reply: 1.22

Ask: Name the reported protein stability index value associated with the sequence LLGIDATVPSGRPETYI [RPO31]
Reply: 2.71

Ask: Returns the measured protein stability index for the input sequence. Input: ASYVNIPVIALTDLDSP [RPS0A]
Reply: 1.92

Ask: Recorded protein stability index of TIELAGGGYFSAAGMTA [FAS1] , please.
Reply: 2.87

More entries:
Ask: Field request: protein stability index | item: ALDTVTNVLNFIKLQKI [FAS1]
Reply: 2.76

Ask: State the recorded protein stability index for this entry: LYQIDYLGTKVELPYGA [PRE1]
Reply: 1.72

Ask: Sample YSEHLKPYDINVVLVTN [DIS3] — what was its protein stability index?
Reply: 1.77

Ask: Requested read-out: protein stability index. Entry: SVQTFGKKKSATAVAHV [RPS16A]
Reply: 2.37

Ask: Value lookup for protein stability index; key = GSLACDTADEAKTLIPS [RPB4]
Reply: 3.06

Ask: Please report the recorded protein stability index for KCQTCQEGMNECPGHFG [RPO21] .
Reply: 3.34

Ask: Item under review: EEREAAASKVKLEEESK [RPC53] . Reported protein stability index?
Reply: 3.29
